- experimental protocol: qHTS of pediatric cancer cell lines to identify multiple opportunities for drug repurposing: Confirmatory screen for A673 cells (AID 1347110);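 further: cells exposed to compound for 48 h before the viability read; nearly all actives have a fitted effect of over 65% in size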
- run parameters: A673 Ewing sarcoma cell viability; series mostly up to 45.9 µM
Results filed as inconclusive are left out. Calls of active or inactive are those of the source. The call rests on the fitted dose curve; in most records, active means well fitted cell-killing curve with a large enough effect; inconclusive means small, poorly fitted or top-dose-only effect; inactive means flat fitted curve, though single readings scatter.
# valid calls are yes for active, no for inactive; nothing else

Task: Dear all, I need the recorded test outcome for "CN(C)CCN(Cc1ccsc1)c1ccccn1" , thank you.
Result: no

Task: Dear all, I need the recorded test outcome for Cc1ccc(C(=O)Oc2ccc(C(O)CNC(C)(C)C)cc2OC(=O)c2ccc(C)cc2)cc1 (centres undefined) , thank you.
Result: yes

Task: Dear all, I need the recorded test outcome for "Nc1c2ccccc2nc2ccccc12" , thank you.
Result: yes

Task: Dear all, I need the recorded test outcome for "CCc1cc2cc(OC)c(OC)cc2c(Cc2ccccc2)n1" , thank you.
Result: no

Task: Dear all, I need the recorded test outcome for CCC(=O)O[C@]1(C(=O)COC)[C@@H](C)C[C@H]2[C@@H]3CCC4=CC(=O)C=C[C@]4(C)C3(F)[C@@H](O)C[C@@]21C (some centres undefined) , thank you.
Result: no

Task: Dear all, I need the recorded test outcome for "CCCC(=O)O[C@]1(C(=O)CCl)[C@@H](C)C[C@H]2[C@@H]3CCC4=CC(=O)C=C[C@]4(C)[C@@]3(F)C(=O)C[C@@]21C" , thank you.
Result: no

Task: Dear all, I need the recorded test outcome for "CC(C)(C)CC(=O)OCC(=O)[C@@]1(O)CC[C@H]2[C@@H]3CCC4=CC(=O)C=C[C@]4(C)[C@H]3[C@@H](O)C[C@@]21C" , thank you.
Result: yes

Task: Dear all, I need the recorded test outcome for CCCCC(CC)CNC(=O)CC(C)OC(=O)CCC(=O)O (centres undefined) , thank you.
Result: yes

Task: Dear all, I need the recorded test outcome for "N=C(N)c1ccc(OCCCOc2ccc(C(=N)N)cc2)cc1" , thank you.
Result: no

====

Field: max response. Provide a value for each of the molecules that follow.
- experimental protocol: qHTS Assay for Identifying Gametocytocidal Compounds (AID 743244);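 further: on the % scale 0 is the no-effect control and ±100 the full control effect; actives lower the fluorescent signal which means gametocytes are killed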
- run parameters: P. falciparum 3D7 stage III-V gametocytes, alamarBlue, 72 h; hits give low values
Results filed as inconclusive are left out.
Give bare numbers, in %.

Consider the following illustrative entries.
molecule: CC(=O)Nc1c(I)c(NC(C)=O)c(I)c(C(=O)O)c1I
max response [%]: -5.52

molecule: O=C(COCCOCCOCC(=O)Nc1c(I)cc(I)c(C(=O)O)c1I)Nc1c(I)cc(I)c(C(=O)O)c1I
max response [%]: 31

molecule: O=C(CCCCC(=O)Nc1c(I)cc(I)c(C(=O)O)c1I)Nc1c(I)cc(I)c(C(=O)O)c1I
max response [%]: 35.4

molecule: CCOC(=O)C1=C(C)NC(C)=C(C(=O)OCC)C1c1ccccc1/C=C/C(=O)OC(C)(C)C
max response [%]: 4.06

molecule: CCN1CCN(c2cc(-c3ccc(F)cc3)c3c(n2)CCCCCC3)CC1
max response [%]: 9.24

Batch request: max response per item, same order as input.
1. CC(CCc1ccc2c(c1)OCO2)NN (stereo not given)
2. NC(=O)COCCN1CCN(C(c2ccccc2)c2ccc(Cl)cc2)CC1 (stereo not given)
3. O=[N+]([O-])c1ccc(-c2nc(-c3ccc(F)cc3)c(-c3ccncc3)[nH]2)cc1
4. Cc1nn(-c2ccccc2)c(C)c1/C=N/N1CCN(Cc2ccccc2)CC1
5. OCc1cccnc1

Result:
1: 15.4; 2: -3.31; 3: -10.7; 4: 1.48; 5: -22.7

====

- experimental protocol: qHTS of pediatric cancer cell lines to identify multiple opportunities for drug repurposing: Primary screen for NB-EBc1 cells (AID 1347095)
- run parameters: NB-EBc1 neuroblastoma viability, CellTiter-Glo luminescence, 48 h; series mostly up to 46 µM
Records with an inconclusive call do not appear. The source made the active and inactive calls. Calls follow the shape of the dose curve; as a rule, active = well fitted cell-killing curve with a large enough effect; inconclusive = small, poorly fitted or top-dose-only effect; inactive = no such curve, though single readings can be large or run the other way.
# valid calls are y for active, n for inactive; nothing else

compound: CC(=O)OCC(=O)Nc1cc(C#N)cc(NC(=O)COC(C)=O)c1Cl
category label: n

compound: CC(=O)N(CC(O)CO)c1c(I)c(C(=O)NCCO)c(I)c(C(=O)NCC(O)CO)c1I (configuration not stated)
category label: n

compound: c1ccc(C(O[C@H]2CCCN(CCc3ccc4c(c3)OCO4)C2)c2ccccc2)cc1
category label: n

compound: C[C@@H](O[C@H]1OCCN(Cc2n[nH]c(=O)[nH]2)[C@H]1c1ccc(F)cc1)c1cc(C(F)(F)F)cc(C(F)(F)F)c1
category label: y

compound: CC(C)C(=O)OCc1cccc(OC(=O)[C@@H]2N3C(=O)[C@@H](NC(=O)Cc4ccccc4)[C@H]3SC2(C)C)c1
category label: n

Task: Dear all, I need the recorded test outcome for "N[C@@H](Cc1cc(I)c(O)c(I)c1)C(=O)O" , thank you.
Result: n

Task: Dear all, I need the recorded test outcome for "COC(=O)c1cc(Cl)c(NC(C)=O)cc1OC" , thank you.
Result: n

Task: Dear all, I need the recorded test outcome for "CCOC(=O)CN1CCCC1=O" , thank you.
Result: n

Task: Dear all, I need the recorded test outcome for "O=C(OCC(COC(=O)c1cccnc1)(COC(=O)c1cccnc1)COC(=O)c1cccnc1)c1cccnc1" , thank you.
Result: n

Task: Dear all, I need the recorded test outcome for "CC(C)(Oc1ccc(Cl)cc1)C(=O)OCCCOC(=O)C(C)(C)Oc1ccc(Cl)cc1" , thank you.
Result: n

====

- Test system: N140
- experimental protocol: qHTS profiling for inhibitors of Plasmodium falciparum proliferation (AID 504749); further: nearly all actives have a fitted effect of over 60% in size
- run parameters: P. falciparum in erythrocytes, SYBR Green DNA, 72 h; series mostly up to 28.7 µM
Records with an inconclusive call do not appear. The source made the active and inactive calls. Calls come from the whole dose curve; as a rule, active = well fitted inhibition curve with a large enough effect; inconclusive = small, poorly fitted or top-dose-only effect; inactive = flat fitted curve, though single readings scatter.
# valid calls are True = active, False = inactive; nothing else

compound: O=S(=O)(O)c1ccc2nc(-c3ccccc3)[nH]c2c1
category label: False

Alright, here's another compound for you.
Task: Dear all, I need the recorded test outcome for "CN1CCC(Nc2ncc3ncnc(Nc4ccc(F)c(Cl)c4)c3n2)CC1" , thank you.
Result: True

====

- Tested on: PA-1
- experimental protocol: Primary qHTS to identify gynecologic anti-cancer compounds using libraries of approved drugs and bioactive compounds (AID 1345084); further: on the % scale 0 is the no-effect control and ±100 the full control effect; nearly all actives have a fitted effect of over 55% in size
- run parameters: Gynecologic cancer cell panel viability, ATPlite luminescence, 48 h; series mostly up to 57.5 µM
Records with an inconclusive call do not appear. The source made the active and inactive calls. Calls follow the shape of the dose curve; as a rule, active = well fitted cell-killing curve with a large enough effect; inconclusive = small, poorly fitted or top-dose-only effect, or effect the other way; inactive = flat fitted curve, though single readings scatter.
# valid calls are active, inactive; nothing else

compound: CN(C)C(=O)CNC(=O)Cc1ccccc1
category label: inactive

Task: Dear all, I need the recorded test outcome for "COc1cc(C=O)ccc1O" , thank you.
Result: inactive

Task: Dear all, I need the recorded test outcome for "O=C(CCCl)NCCc1ccccc1" , thank you.
Result: inactive

Task: Dear all, I need the recorded test outcome for "CC(C)=CCC/C(C)=C/CC/C(C)=C/CCC(=O)OC/C=C(\C)CCC=C(C)C" , thank you.
Result: inactive

====

- experimental protocol: qHTS of pediatric cancer cell lines to identify multiple opportunities for drug repurposing: Primary screen for NB-EBc1 cells (AID 1347095)
- run parameters: NB-EBc1 neuroblastoma viability, CellTiter-Glo luminescence, 48 h; series mostly up to 46 µM
- Description: Drug repurposing or repositioning has been offered as a strategy for drug development in oncology programs. This approach has special potential for childhood cancers and other rare or orphan diseases, where the expected return on new drug development has been a disincentive to pharmaceuticals. […] We employed a titration-based paradigm (quantitative high-throughput screening or qHTS), where all compounds were tested at multiple concentrations for their effect on cell viability. […]
Records with an inconclusive call do not appear. Calls of active or inactive are those of the source. Calls come from the whole dose curve; as a rule, active = well fitted cell-killing curve with a large enough effect; inconclusive = small, poorly fitted or top-dose-only effect; inactive = no such curve, though single readings can be large or run the other way.
# valid calls are 1.0 = active, 0.0 = inactive; nothing else

Illustrative cases are given below, each with its answer.
compound: CNC(=O)c1cnn(-c2nc(N)c3ncn([C@@H]4O[C@H](CO)[C@@H](O)[C@H]4O)c3n2)c1
category label: 0.0
//
compound: CC(=O)N1CCN(c2ccc(O)cc2)CC1
category label: 0.0
//
compound: Cc1cc(O)c(C)c(C)c1O
category label: 0.0
//
compound: NC(=O)NS(=O)(=O)c1ccc(Cl)cc1
category label: 0.0

Task: Dear all, I need the recorded test outcome for CCCCCN(CCCOC)C(=O)C(CCC(=O)O)NC(=O)c1ccc(Cl)c(Cl)c1 (configuration not stated) , thank you.
Result: 0.0

Task: Dear all, I need the recorded test outcome for CC(NC(CCc1ccccc1)C(=O)O)C(=O)N1C(=O)N(C)CC1C(=O)O (configuration not stated) , thank you.
Result: 0.0

Task: Dear all, I need the recorded test outcome for "CCCCCCCCCCCC[N+](C)(C)Cc1ccccc1" , thank you.
Result: 0.0

Task: Dear all, I need the recorded test outcome for COCCc1ccc(OCC2CO2)cc1 (configuration not stated) , thank you.
Result: 0.0

Task: Dear all, I need the recorded test outcome for CN1C(CSCC(F)(F)F)Nc2cc(Cl)c(S(N)(=O)=O)cc2S1(=O)=O (configuration not stated) , thank you.
Result: 0.0

Task: Dear all, I need the recorded test outcome for "CC(=O)c1ccc(O)c(C(N)=O)c1" , thank you.
Result: 0.0

Task: Dear all, I need the recorded test outcome for "CN(C)C(=O)CNC(=O)Cc1ccccc1" , thank you.
Result: 0.0

Task: Dear all, I need the recorded test outcome for "CCCCCCCCCCCCCC[N+](C)(C)C" , thank you.
Result: 1.0
